Assay: protein stability index of a GFP-peptide fusion (yeast GPS) (PSI 1-4); higher = more stable; sorted into four equal gates, so the index is relative within each strain
Conditions: pdr5∆
Each item that follows carries a reported protein stability index.
Would you mind answering with just the numeric figure?

These solved cases illustrate the format of a correct answer.
primary_sequence: EKYAAAAPAATSAASGD [RPP0]
protein stability index: 2.15

primary_sequence: GSNYNPYFPGGSIAMAR [CYT1]
protein stability index: 2.4

primary_sequence: QQNYSKVLLPSINISCV [SWI1]
protein stability index: 1.71

primary_sequence: QTLYTGDKVVVTIWYRA [SSN3]
protein stability index: 1.32

I'd like to know its protein stability index. The sequence in question is EETYEEKPQFKDGETTD [RPO26] 2.98

I'd like to know its protein stability index. The sequence in question is QKKATMSAEEALVYSYI [RPC34] 1.08

I'd like to know its protein stability index. The sequence in question is QPAKEKGVTEKDAVDYS [RRP6] 3.15

I'd like to know its protein stability index. The sequence in question is NFLLPDIFGDSELFDEW [ISW2] 2.46
